test: CD-1 mice plasma pharmacokinetics, bendamustine C14 ester albumin nanoparticle i.v.; type: in vivo; settings: mouse, iv, 30 mg/kg, 30 mg-eq/kg, Mean n = 3, read-out: AUC0-∞ of C14 Ester in plasma
experimentalReadout: AUC(0-inf)

The recorded AUC(0-inf) for CCCCCCCCCCCCCCOC(=O)CCCc1nc2cc(N(CCCl)CCCl)ccc2n1C is 31700 ng·h/mL

----------
assay: CD-1 mice plasma pharmacokinetics, bendamustine C14 ester albumin nanoparticle i.v.; assay type: in vivo; conditions: mouse, iv, 55 mg/kg, 55 mg-eq/kg, Mean n = 3, read-out: AUC0-∞ of C14 Ester in plasma
experimentalReadout: AUC(0-inf) (µg·h/mL)
Give bare numbers, in µg·h/mL.

get_value(item= CCCCCCCCCCCCCCOC(=O)CCCc1nc2cc(N(CCCl)CCCl)ccc2n1C , readout=AUC(0-inf)) returns 49

----------
test: Tumor and plasma levels, MDA-MB-231 tumor efficacy PK group; conditions: athymic nude, mouse, in vivo, 80 mg/kg, Ester level in plasma at 1 hour, Solution
experimentalReadout: concentration at 1 h (ng/mL)
Numbers only, in ng/mL.

CCCCCCCCCCCCCCOC(=O)CCCc1nc2cc(N(CCCl)CCCl)ccc2n1C has a reported concentration at 1 h of 14

----------
assay: Tumor and plasma levels, MDA-MB-231 tumor efficacy PK group; details: athymic nude, mouse, in vivo, 80 mg/kg, Ester level in tumor at 1 hour, HSA nanoparticle
experimentalReadout: concentration at 1 h (ng/mL)
Numbers only, in ng/mL.

In plain terms, CCCCCCCCCCCCCCOC(=O)CCCc1nc2cc(N(CCCl)CCCl)ccc2n1C [Bendamustine C14 Ester] has a documented concentration at 1 h of 10400

----------
Experiment: CD-1 mice plasma pharmacokinetics, bendamustine C14 ester albumin nanoparticle i.v.
Format: in vivo
Details: mouse, iv, 30 mg/kg, 30 mg-eq/kg, Mean n = 3, read-out: t1/2 of C14 Ester in plasma (converted)
Description: Another embodiment of the invention, bendamustine C14 ester was formulated into a nanoparticle intraveneous formulation according to the methods described above and administered to CD-1 mice. The amount of bendamustine (BM1) and bendamustine C14 ester was determined in the mice plasma.
experimentalReadout: half-life
Please state the value followed by its unit.

Recorded half-life (compound CCCCCCCCCCCCCCOC(=O)CCCc1nc2cc(N(CCCl)CCCl)ccc2n1C [Bendamustine C14 Ester] ): 91.2 min

Origin of values: patent US9452988B2
